- Test system: NCI-H460 lung
- Test Name: NCI tumour cell line growth inhibition, 48 h
Property: TGI; scope: individual compounds
Respond numerically; units are µM and should not be typed.

O=C(NCCCCN=c1cccccc1NCCCCNC(=O)OCc1ccccc1)OCc1ccccc1; 26.4

# evaluate next
# input Value lookup for TGI; key = C#CCN(CC#C)C(=O)C(=O)c1c[nH]c2ccc(OC)cc12
# output 29.7

====

Property: TGI; scope: individual compounds
- Test system: SK-MEL-28 melanoma
- Test Name: NCI tumour cell line growth inhibition, 48 h

O=C(NC(=O)c1cn(CCNCCO)c(=O)[nH]c1=O)OCc1ccccc1; > 100 µM
Cc1cn2c(/C=C3\C(=O)Nc4ccc(O)cc43)c(-c3ccc(Cl)cc3)nc2s1; 28.1 µM
COc1ccc(OC)c(N2C(=O)CSC2c2cc(OC)c(OC)c(OC)c2)c1 (centres undefined); > 100 µM
CC(C)C1=C(Cc2ccccc2)C(=O)O/C1=C\c1cc(Cl)c(O)c(Cl)c1; 35.9 µM
CCOC(=O)C(=Cc1cccc(Cl)c1)C(=O)OCC; 3.26 µM

# input Please provide the recorded TGI for C=CCc1cccc(/C=N/NC(=O)CN2CCN(Cc3ccccc3)CC2)c1O , tested on SK-MEL-28 melanoma.
# output 15.5 µM

# input CCOC(=O)NC1CN2CCC1CC2 (centres undefined) ?
# output > 100 µM

# input Cc1ccc(Cn2c(C)nc3c2C(=O)c2ccccc2C3=O)cc1 ?
# output > 100 µM

# input COc1ccc(OC)c(C2Cc3cnc4nc(N)nc(N)c4c3C2)c1 (centres undefined) ?
# output > 100 µM

Reference source for all entries: PubChem BioAssay (NCI)
